Test system: RPMI-8226
Test: NCI tumour cell line growth inhibition, 48 h
The source made the active and inactive calls. No stated cut-off is given here; in the data, active = GI50 up to about 1.1 µM and inactive = higher.
Quantity Name: GI50

The recorded GI50 for O=C(O)C1C2C=CC(O2)C1C(=O)NCc1ccccn1 (centres undefined) is > 100 µM (inactive)

Per the records, this molecule ( Cc1coc2c1C(=O)C(=O)c1c-2ccc2c1CCCC2(C)C ) has GI50 equal to 1.94 µM (inactive)

Data point: Cc1ccc2c(c1)CC1(Cc3cc(C)ccc3C1=O)C2=O ; GI50 = > 100 µM (inactive)

Lab note: COc1ccc(-c2ccccc2)c2[nH]c3c(c12)CCNC3=O gave GI50 of > 100 µM (inactive)
